Measured TGI, listed per entry.
Test system: T-47D breast
Experiment: NCI tumour cell line growth inhibition, 48 h
Where a SMILES comes first, the peptide text is derived from it. [ ]: non-standard residue; d: D form. The star is where a group is joined. Phe(4-NO2) = N[CH](Cc1ccc([N+](=O)[O-])cc1)C(=O)O; Cbz = O=C(OCc1ccccc1)*

molecule | TGI
CN(C)C(=S)N1C(=S)N(c2ccccc2)C(=Nc2ccccc2)C1=Nc1ccccc1 | > 100 µM
O=C1C=CC(=O)c2c1cc([N+](=O)[O-])c1ccoc21 | > 100 µM
CN(C)CC1CCCC(CN2CCCCC2)C1=O (centres undefined) | 4.85 µM
O=C(/C=C/c1ccc(O)c(O)c1)OCc1ccccc1 | 73.8 µM
CCOC(=O)CCC(NC(=O)OCc1ccccc1)C(=O)NC(CCC(=O)OCC)C(=O)NC(Cc1ccc([N+](=O)[O-])cc1)C(=O)NC(CCC(=O)OCC)C(=O)NC(CCC(=O)OCC)C(=O)OCC (centres undefined) (Cbz-E(OEt)E(OEt)[Phe(4-NO2)]E(OEt)E(OEt)-OEt; configuration not given here) | > 100 µM
Sc1ccc2ccccc2c1CNCc1ccccc1 | > 100 µM
CCC(=O)C1(c2ccccc2)CCN(C)CC1 | > 100 µM
COC(=O)[C@H]1C(=O)[C@@]2(C)[C@H]([C@H](OC(=O)c3ccccc3)[C@]3(O)C[C@H](OC(=O)[C@H](O)[C@@H](NC(=O)c4ccc(F)cc4)c4ccccc4)C(C)=C1C3(C)C)[C@]1(OC(C)=O)CO[C@@H]1C[C@@H]2O | > 25 µM
COc1ccc(/C=N/n2c(=O)[nH]c3ccccc3c2=O)cc1 | > 100 µM
COC(=O)C(Cc1ccccc1)NC(=O)C(CCC(=O)OCc1ccccc1)NC(=O)OC(C)(C)C (centres undefined) | > 100 µM
N=c1oc2c(Br)cc(Br)cc2cc1C(=O)Nc1ccccn1 | > 100 µM
COC(=O)NC1(NC(=O)OC)NC(=O)c2cc(OC)c(OC)cc2N1 | > 100 µM
C=C(C)CNC(=S)N(N)c1ccc(OC)cc1 | > 100 µM
C=CCc1c(C)nc(C)nc1N/N=C/C=C/c1ccccc1 | 28 µM
COc1cccc(Cn2c(-c3nonc3N)nc3ccccc32)c1 | > 100 µM
C#CCSc1n[nH]c(-c2ccco2)n1 | > 100 µM
COc1ccc2c(c1)CCN=C2Cc1ccccc1CCCl | > 100 µM
COc1ccccc1-c1cc(/C=C2\C(=O)Nc3ncc(Br)cc32)cc(Br)c1O | > 25 µM
Cc1ccccc1[P+](C)(c1ccccc1C)c1ccccc1C | 12.9 µM
CN(C)CCCNC(=O)c1ccc2oc3cc4ccccc4c(=O)n3c2c1 | > 50 µM
Cc1ccc(/C=N/Nc2nc3ccccc3s2)s1 | > 100 µM
O=C1OC2C(O)COC2(O)C1(O)C(C[N+](=O)[O-])c1ccc(Cl)cc1 (centres undefined) | 43.2 µM
N=C(N)/N=C(\N)c1c(-c2cc(O)ccc2O)nc2sccn12 | 45.1 µM
CC1C(=NO)C(C)C(c2ccccc2)N(N=O)C1c1ccccc1 (centres undefined) | 38.9 µM

src = PubChem BioAssay (NCI)
